Data origin, for the record: PubChem BioAssay

Quick reference: composite z-score of the listed items.
# assayed system: Dihydroorotate dehydrogenase (quinone), mitochondrial (Plasmodium falciparum (isolate 3D7)) (UniProt Q08210)
# Sequence (Q08210 whole entry, looked up): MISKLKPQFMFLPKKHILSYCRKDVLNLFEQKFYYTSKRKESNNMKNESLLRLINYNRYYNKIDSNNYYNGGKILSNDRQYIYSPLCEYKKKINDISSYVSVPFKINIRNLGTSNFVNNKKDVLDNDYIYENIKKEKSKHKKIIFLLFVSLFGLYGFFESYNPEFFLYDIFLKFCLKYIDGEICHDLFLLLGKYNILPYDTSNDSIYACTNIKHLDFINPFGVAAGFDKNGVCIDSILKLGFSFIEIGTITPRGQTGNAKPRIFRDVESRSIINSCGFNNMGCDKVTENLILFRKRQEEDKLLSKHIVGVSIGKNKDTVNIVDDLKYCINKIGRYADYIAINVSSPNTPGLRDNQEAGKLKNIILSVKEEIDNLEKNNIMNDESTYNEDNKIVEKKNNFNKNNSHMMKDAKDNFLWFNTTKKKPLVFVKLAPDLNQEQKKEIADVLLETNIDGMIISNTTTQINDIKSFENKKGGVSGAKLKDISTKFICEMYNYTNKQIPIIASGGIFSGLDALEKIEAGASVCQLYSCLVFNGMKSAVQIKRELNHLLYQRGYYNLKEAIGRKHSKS
# measurement notes: PfDHODH enzyme inhibitors, primary screen, biochemical, C-terminal His tag, absorbance 600 nm (AID 1175);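 further: recombinant parasite enzyme with a five histidine tag at its C terminus; test concentration not given here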
# condition summary: DCIP absorbance 600 nm, higher = more signal, called active from +8 up or from −8 down
assay readout: composite z-score

C=C(CCCC)C(=O)CC[C@@H](OC(C)=O)c1cccc(OCCO)c1; -3.64
CC(C)[C@@H](OCc1ccccc1)[C@H](C)C=NOC[C@@H](C)[C@H](OCc1ccccc1)C(C)C; -0.213
CC1CC/C=C\[C@H]2OC34C=CCN(Cn5nnc6ccccc65)C(=O)[C@H]3N(CCO)C(=O)[C@@H]4C2C(=O)O1 (some centres not stated); -0.895
COC(=O)CC1OC1[C@H](C)[C@@H](OC)C(C)C (some centres not stated); -3.39
COC(=O)[C@]1(CO)N=C(c2ccc(OCCCO)cc2)O[C@@H]1c1ccccc1N=[N+]=[N-]; 0.482
CO[C@H]1COC(=O)CC=C[C@H](C)[C@@H](NS(=O)(=O)c2ccc(C)cc2)COC(=O)CC=C[C@@H]1C; -2.98
CC(CCN1CCc2nc(-c3ccccc3)c(-c3ccccc3)cc2C1)=NOC(C)CN1CCCCc2nc(C)c(C)cc21 (configuration not stated); 0.187
O=C1[C@H]2[C@H]3[C@H](O)[C@H](O)CC(=NO[C@@H]4O[C@H](CO)[C@@H](O)[C@H](O)[C@H]4O)[C@H]3CC[C@H]2C(=O)N1C1CCCCC1; 0.26
C=CC[C@@H]1C=C[C@H](ON=C(C)CCN2CCc3nc(CC)c(CC)cc3C2)[C@@H](CO)O1; -1.29
Cc1ccc(C2CC=C(C(=O)O)CN2S(=O)(=O)c2ccc(C)cc2)cc1 (configuration not stated); 1.23
CO[C@@H]1COC(=O)CCC[C@@H](C)[C@H](OC)COC(=O)[C@H](Cc2ccccc2)NC(=O)CC=C[C@H]1C; 0.615
COC(=O)C1(C)C=C2C(=C(c3ccccc3)C(=O)C2C)CN1 (configuration not stated); -0.784
CC1(C)OCC(C(O)C2=CCCCC2=O)CO1 (configuration not stated); 0.523
CC(=O)C[C@H](O)[C@@H](NC(=O)OC(C)(C)C)C(C)C; -3.13
CC(C)=CCCC(C)=CCON=C1C[C@@H](O)[C@@H](O)[C@@H]2[C@@H]3C(=O)N(C[C@@H]4CCCO4)C(=O)[C@@H]3CC[C@@H]12; -0.111
COC(=O)CC=C[C@@H](C)[C@@H](C=NO[C@@H](C)c1cc(-c2c(C)cc(C)cc2C)no1)OC; -2.58
O=C1c2ccccc2[C@@]2(Cc3ccccc3N(C3CC3)C2=O)[C@H](c2ccc(CO)cc2)N1Cc1ccccc1C(F)(F)F; -9.3
N#Cc1ccc(NN2C(C(O)c3cccc4ccccc34)C=CC3C(=O)N(c4ccccc4)C(=O)C32)cc1 (configuration not stated); 0.199
CCCCCN1CC=CC23O[C@@H]4C=CCOC(=O)[C@@H]4[C@H]2C(=O)N(CCCCCCO)[C@@H]3C1=O (some centres not stated); -0.473
O[C@@H](Cc1ccccc1)[C@H]1C2C=CCCC(c3ccccc3)=C2CN1Cc1cccc(Cl)c1 (some centres not stated); 0.426
CC(C)=CCCC(C)=CCON=C1[C@H]2CCn3c(=O)n(C)c(=O)n3[C@H]2[C@H](O)[C@@H]2O[C@H]12; -0.251
C=CCNC(=O)[C@H]1[C@@H]2C(=O)O[C@@H](c3ccccc3)[C@@H](c3ccccc3)N2[C@@H](c2ccc(O)cc2)[C@]12C(=O)N(C(=O)OCCOC)c1ccc(C#CC3=CCCCC3)cc12; -0.629
CC(=O)OC[C@H]1O[C@H](CCON=C[C@@H](C)[C@H](OCc2ccccc2)C(C)C)C=C[C@@H]1OC(C)=O; -0.64
CCOC(=O)NN=C1C[C@@H](O)[C@@H](O)[C@@H]2[C@@H]3C(=O)N(C4CCCCC4)C(=O)[C@@H]3CC[C@H]12; 0.406
CCCNC(=O)[C@@H]1c2ccccc2C(=O)N(c2ccc(C)cn2)[C@H]1c1ccc(CO)cc1; -0.165
C#CCCCON=C1C[C@@H](O)[C@@H](O)[C@@H]2[C@@H]3C(=O)N(CCC(=O)OCC)C(=O)[C@@H]3CC[C@@H]12; 0.175
CCOC(=O)CCN1C(=O)[C@H]2[C@H]3[C@H](O)[C@H](O)CC(=NOC[C@@H](O)COCc4ccco4)[C@H]3CC[C@H]2C1=O; -2.45
O=C1[C@H]2[C@H]3[C@H](O)[C@H](O)CC(=NOCc4ccccc4)[C@@H]3CC[C@H]2C(=O)N1C1CCCCC1; 0.35
CC(=O)OC[C@H]1O[C@H](CCON=C(C)CCN2CCc3nc(-c4ccccc4)c(-c4ccccc4)cc3C2)C=C[C@@H]1OC(C)=O; -0.439
[N-]=[N+]=NCc1ccccc1C[C@]1(C(=O)NCc2ccccc2)N=C(c2ccc(OCCCO)cc2)O[C@H]1c1ccccc1N=[N+]=[N-]; 0.294
O=C1[C@H]2[C@H]3[C@H](O)[C@H](O)CC(=NOCc4ccccc4)[C@@H]3CC[C@H]2C(=O)N1Cc1ccccc1; -0.0807
[N-]=[N+]=NCc1ccccc1[C@@H]1OC(c2ccc(OCCCO)cc2)=N[C@]1(Cc1ccccc1)C(=O)N1CCOCC1; -0.0859
